# measuredTarget: JARID1B (Homo sapiens)
# Construct: The FLAG tagged full length JARID1B enzyme was expressed in Sf21 insect cells using FLAG-JARID1B baculoviruses; FLAG (N); made in house; host or cells: Sf21 insect cells (baculovirus)
# Sequence (Q9UGL1 whole entry): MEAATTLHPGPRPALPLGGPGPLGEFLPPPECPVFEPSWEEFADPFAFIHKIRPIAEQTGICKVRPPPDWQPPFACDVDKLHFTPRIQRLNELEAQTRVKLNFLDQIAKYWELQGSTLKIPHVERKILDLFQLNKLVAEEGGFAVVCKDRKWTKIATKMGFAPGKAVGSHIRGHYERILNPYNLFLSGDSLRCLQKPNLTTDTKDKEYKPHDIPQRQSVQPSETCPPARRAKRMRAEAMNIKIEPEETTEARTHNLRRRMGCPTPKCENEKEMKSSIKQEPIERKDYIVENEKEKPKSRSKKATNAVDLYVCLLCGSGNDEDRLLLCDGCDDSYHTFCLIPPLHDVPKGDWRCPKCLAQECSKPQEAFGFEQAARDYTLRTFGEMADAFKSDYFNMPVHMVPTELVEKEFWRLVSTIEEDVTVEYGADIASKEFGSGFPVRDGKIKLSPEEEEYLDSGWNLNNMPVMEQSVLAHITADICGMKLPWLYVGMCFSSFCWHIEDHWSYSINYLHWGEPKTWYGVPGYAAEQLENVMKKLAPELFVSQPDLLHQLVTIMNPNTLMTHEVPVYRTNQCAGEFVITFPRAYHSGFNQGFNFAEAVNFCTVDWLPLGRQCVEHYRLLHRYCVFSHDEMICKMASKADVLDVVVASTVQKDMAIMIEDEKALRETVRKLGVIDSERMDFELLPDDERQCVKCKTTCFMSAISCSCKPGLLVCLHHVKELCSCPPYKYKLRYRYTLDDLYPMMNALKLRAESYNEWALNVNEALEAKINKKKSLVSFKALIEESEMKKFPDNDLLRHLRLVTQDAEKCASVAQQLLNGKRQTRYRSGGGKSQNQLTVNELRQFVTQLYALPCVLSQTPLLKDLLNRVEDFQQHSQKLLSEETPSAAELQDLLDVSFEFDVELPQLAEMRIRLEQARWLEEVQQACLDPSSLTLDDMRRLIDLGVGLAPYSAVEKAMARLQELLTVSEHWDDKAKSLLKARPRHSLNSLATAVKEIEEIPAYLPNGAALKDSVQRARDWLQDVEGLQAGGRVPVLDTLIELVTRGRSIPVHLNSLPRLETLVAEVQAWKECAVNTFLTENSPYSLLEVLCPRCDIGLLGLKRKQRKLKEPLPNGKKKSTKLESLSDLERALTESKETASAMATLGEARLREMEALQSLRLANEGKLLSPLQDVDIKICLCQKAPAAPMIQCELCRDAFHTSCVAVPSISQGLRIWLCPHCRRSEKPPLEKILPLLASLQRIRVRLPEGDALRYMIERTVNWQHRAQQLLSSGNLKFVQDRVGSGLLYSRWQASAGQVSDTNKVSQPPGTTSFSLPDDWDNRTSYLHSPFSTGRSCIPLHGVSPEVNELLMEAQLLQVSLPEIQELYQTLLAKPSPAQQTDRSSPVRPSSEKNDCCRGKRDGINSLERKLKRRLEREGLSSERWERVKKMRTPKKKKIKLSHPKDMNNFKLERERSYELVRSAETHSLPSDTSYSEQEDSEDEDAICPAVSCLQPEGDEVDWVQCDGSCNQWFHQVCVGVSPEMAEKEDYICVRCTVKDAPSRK
# protocolDetails: FLAG-JARID1B histone demethylase assay with AlphaScreen detection (HTS and dose response);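 further: FLAG-tagged JARID1B at 4 nM acting on a biotinylated H3K4me3 peptide, demethylation read by AlphaScreen luminescence, with hits checked against bio-H3K4me2 without enzyme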
# Format: biochemical
# assayContext: high-throughput screen, compound 20 μM, standard demethylase conditions (10 μM α-KG, 50 μM Fe (II)); read-out: Inhibitory effect (percent)
quantityKind: inhibition at 20 µM
Write down the value, and be sure its unit follows.

Consider the reported inhibition at 20 µM for these compounds:
# compound, inhibition at 20 µM
measured = [
    ("O=C(Nc1cnc(N2CCN(c3ccccc3Cl)CC2)c(C(=O)O)c1)c1ccc(F)cc1", "51.5%"),
    ("CCC(=O)Nc1ccc(N2CCC(C(N)=O)(N3CCCCC3)CC2)c(C(=O)O)c1", "46.1%"),
    ("COc1ccc(C)cc1NC(c1cccnc1)c1ccc2cccnc2c1O (stereo not shown)", "48.5%"),
]

Please report inhibition at 20 µM for every entry that follows.
1. O=C(Nc1ccc(N2Cc3ccccc3OC(c3ccccc3)C2)c(C(=O)O)c1)c1ccccc1F (stereo not shown)
2. O=C(O)c1cccc(NCc2ccncc2)c1
3. Fc1ccccc1-c1nc2ncccc2o1
4. Fc1cccc(-c2nn3c(-c4ccccc4Cl)nnc3s2)c1
5. COc1cccc2c1C(=O)c1c(O)c3c(c(O)c1C2=O)C[C@@](O)(C(C)=O)C[C@@H]3O[C@H]1C[C@H](N)[C@H](O)[C@H](C)O1 [YU155188, DAUNORUBICIN, reference compound]
6. N#CC(=CC=Cc1ccco1)C(N)=S (single isomer, unassigned)
7. CN(C)c1cccc2c(C=O)ccc(N(C)C)c12

["44.6%", "94.6%", "37.3%", "33.9%", "74.7%", "44.6%", "32.3%"]

====

# protocolDetails: AlphaScreen counterscreen against bio-H3K4me2 peptide in the absence of enzyme (artifact signal);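 further: counterscreen run without enzyme against bio-H3K4me2 peptide to remove false positive hits from the JARID1 demethylase AlphaScreen screen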
# assayContext: effect of the compound when incubated with bio-H3K4me2 peptide (counterscreen, no enzyme)
Counter-ions that a name gives are not always drawn.
What Artifact Signal (percent) was measured for each of the following?
Give bare numbers, in %.

Consider the reported Artifact Signal (percent) for these compounds:
# compound, quantityKind, measuredResult
records = [
    ("COc1cc(NC(C)CCCN)c2ncccc2c1 (centres unmarked) [YU033971, PRIMAQUINE DIPHOSPHATE, reference compound]", "Artifact Signal (percent)", "−4.11"),
    ("CCN(CC)CCOc1ccc(/C(=C(\\Cl)c2ccccc2)c2ccccc2)cc1 [YU033752, CLOMIPHENE CITRATE, reference compound]", "Artifact Signal (percent)", 0.86),
    ("O=C(O)CCCSCC(=O)Nc1ccccc1", "Artifact Signal (percent)", 2.50),
    ("NCCc1ccc(O)c(O)c1 [YU033802, DOPAMINE HYDROCHLORIDE, reference compound]", "Artifact Signal (percent)", 10.00),
    ("COC1=CC(=O)C(O)=CC1=CC=Cc1ccccc1 (single isomer, unassigned) [YU155007, OBTUSAQUINONE, reference compound]", "Artifact Signal (percent)", 7.90),
]

Please report Artifact Signal (percent) for every entry that follows.
1. O=C(NCc1ccccc1)c1ccc(N2CCCC2)c([N+](=O)[O-])c1
2. O=C(O)CC(CC(=O)Nc1cc(C(F)(F)F)ccc1N1CCOCC1)c1ccccc1 (centres unmarked)
3. Cc1cccc(NC(c2ccccn2)c2ccc3cccnc3c2O)n1 (centres unmarked)

5.15
11.20
37.93
